Biological target: Ras farnesyl transferase (Homo sapiens, UniProt P49354+P49356)
Construct: made in house
Assay: in vitro inhibitory activity for Ras farnesyl transferase, K-Ras substrate
Assay type: biochemical
Settings: recombinant Ras farnesyl transferase, K-Ras substrate; read-out: K-Ras IC50
Description: In the present experiment, Ras farnesyl transferase produced by genetic recombination techniques according to the improved Pompliano's method (Pompliano et al., Biochemistry, 1992, 31, 3800) was used, […] Appln. No. 97-14409 was used after it has been purified according to the known method(see, Chung et al., Biochimica et Biophysica Acta, 1992, 278, 1129). […]
assay_readout: IC50 (nM)
Record the value in nM, omitting the unit from your answer.

// known answers, use as guide
{"compound": "COCCN(C)C(=O)c1cn(Cc2cncn2CC2CCN(C(=O)c3ccc4ccccc4c3)CC2)cc1-c1cccc2ccccc12 [Compound 27]", "reading_unit": "nM", "assay_result": 15}
{"compound": "CC(=O)N1CCC(Cn2cncc2Cn2cc(C(=O)N3CCOCC3)c(-c3cccc4ccccc34)c2)CC1 [Compound 3]", "reading_unit": "nM", "assay_result": 16}
{"compound": "CS(=O)(=O)N1CCC(Cn2cncc2Cn2cc(C(=O)N3CCOCC3)c(-c3cccc4ccccc34)c2)CC1 [Compound 4]", "reading_unit": "nM", "assay_result": 26}

Could you now consider this next compound?
Give reported IC50 value for COCCN(C)C(=O)c1cn(Cc2cncn2CC2CCN(C(=O)N3CCc4ccccc4C3)CC2)cc1-c1cccc2ccccc12 [Compound 32]
12
